Catalogue of IC50 readings, one per entry.
- Target Under Test: full-length recombinant human NEK7 (Homo sapiens)
- Construct: full-length recombinant human NEK7; GST (N); purchased SignalChem N09-10G; host or cells: Sf9 insect cells (baculovirus)
- Assay Protocol: NEK7 enzymatic assay ([33P]-ATP, casein substrate)
- Assay type: biochemical
- Condition Details: Table 2e; recombinant human NEK7, casein substrate

[
  {
    "Smiles Text": "CN1C[C@H]2CC[C@@H](C1)N2Cc1ccc(NC(=O)Nc2ccc(Oc3ccnc4[nH]cc(Cl)c34)cc2F)cc1C(F)(F)F",
    "Assay Value": "> 1500 nM"
  }
]

Exercise: full-length recombinant human NEK7 (Homo sapiens) / IC50 / O=C(Nc1ccc(CN2CC(F)(F)C2)c(C(F)(F)F)c1)Nc1ccc(Oc2ccnc3[nH]cc(Cl)c23)cc1F : value?
Key: > 1500 nM

Exercise: Would you kindly repeat that for CN1CCN(Cc2ccc(NC(=O)Nc3ccc(Oc4ccnc5[nH]cc(Cl)c45)cc3F)cc2F)CC1 ?
Key: > 1500 nM

Exercise: Would you kindly repeat that for O=C(Nc1ccc(CN2CCOCC2)c(C(F)(F)F)c1)Nc1ccc(Oc2ccnc3[nH]cc(Cl)c23)cc1F ?
Key: > 1500 nM

----------
- Target Under Test: full-length recombinant human NEK7 (Homo sapiens, UniProt Q8TDX7)
- Construct: full-length recombinant human NEK7; GST (N); purchased SignalChem N09-10G; host or cells: Sf9 insect cells (baculovirus)
- Sequence (Q8TDX7 whole entry): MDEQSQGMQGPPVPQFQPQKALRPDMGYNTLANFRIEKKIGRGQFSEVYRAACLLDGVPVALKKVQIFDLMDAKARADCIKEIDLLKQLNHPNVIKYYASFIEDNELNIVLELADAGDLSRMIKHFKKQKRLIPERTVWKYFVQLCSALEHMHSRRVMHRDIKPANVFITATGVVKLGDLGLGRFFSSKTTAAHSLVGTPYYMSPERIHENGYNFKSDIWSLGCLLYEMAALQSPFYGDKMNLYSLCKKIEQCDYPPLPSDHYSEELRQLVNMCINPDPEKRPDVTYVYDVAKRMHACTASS
- Assay Protocol: NEK7 enzymatic assay ([33P]-ATP, casein substrate)
- Format: biochemical
- Condition Details: Table 2e; recombinant human NEK7, casein substrate
Catalogue of IC50 readings, one per entry.

Recorded IC50, per entry:
[
  {
    "Molecule": "CN1CCN(Cc2ccc(NC(=O)Nc3ccc(Oc4ccnc5[nH]cc(Cl)c45)cc3F)cc2C(F)F)CC1 [Ie-22]",
    "Assay Value": "501 to 1500 nM"
  },
  {
    "Molecule": "Cc1c[nH]c2nccc(Oc3ccc(NC(=O)Nc4ccc(CN5CCN(C)CC5)c(C(F)(F)F)c4)c(F)c3)c12 [Ie-28]",
    "Assay Value": "151 to 300 nM"
  },
  {
    "Molecule": "CN1C[C@@H]2CN(Cc3ccc(NC(=O)Nc4ccc(Oc5ccnc6[nH]cc(Cl)c56)cc4F)cc3C(F)(F)F)C[C@@H]2C1 [Ie-18]",
    "Assay Value": "> 1500 nM"
  },
  {
    "Molecule": "Cc1[nH]c2nccc(Oc3ccc(NC(=O)Nc4ccc(CN5CCN(C)CC5)c(C(F)(F)F)c4)c(F)c3)c2c1Cl [Ie-27]",
    "Assay Value": "301 to 500 nM"
  },
  {
    "Molecule": "CCN1CCN(Cc2ccc(NC(=O)Nc3ccc(Oc4ccnc5[nH]cc(Cl)c45)cc3F)cc2C(F)F)CC1 [Ie-23]",
    "Assay Value": "501 to 1500 nM"
  }
]

Now for the molecule whose IC50 we want.
Exercise: What value of measured IC50 is listed for CN1CCN(Cc2ccc(NC(=O)Nc3ccc(Oc4ccnc5[nH]cc(C6CC6)c45)cc3F)cc2C(F)(F)F)CC1 [Ie-26] ?
Key: 501 to 1500 nM

Recorded values, source patent US20230210853A1.
